Item-by-item account of pIC50
# Assayed Target: FP receptor (Homo sapiens (Human), UniProt P43088)
# Sequence (P43088 whole entry): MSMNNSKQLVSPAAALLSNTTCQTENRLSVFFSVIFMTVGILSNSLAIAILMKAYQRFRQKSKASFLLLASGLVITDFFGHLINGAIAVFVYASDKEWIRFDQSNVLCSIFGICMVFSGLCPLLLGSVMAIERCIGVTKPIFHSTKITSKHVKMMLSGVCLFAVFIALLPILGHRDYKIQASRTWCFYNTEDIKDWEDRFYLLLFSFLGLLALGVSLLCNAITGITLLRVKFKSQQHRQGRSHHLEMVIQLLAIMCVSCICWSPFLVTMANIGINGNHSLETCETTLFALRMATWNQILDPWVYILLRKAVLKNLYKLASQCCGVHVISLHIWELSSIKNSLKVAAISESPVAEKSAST
# Protocol Description: In vitro test of inhibition of human FP receptor activity (PGF2α-induced calcium flux in FP-expressing CHEM1 cells)
# Details: PGF2α 2 nM, some mean values of multiple determinations
# reply with the number alone; pIC50 is -log10 of concentration in mol/L

Completed entries (count: 3):
Cc1c(N2CC[C@H](F)C2)nc2ccc(Br)cc2c1C(=O)NCC(CCC(=O)O)c1ccccc1Cl (stereo partly drawn) = 6.96
Cc1c(NCC2CCCCC2)nc2ccc(Br)cc2c1C(=O)NCC(CCC(=O)O)c1ccccc1Cl (racemic) = 6.30
[2H]C1([2H])N(c2nc3ccc(Br)cc3c(C(=O)NCC(CCC(=O)O)c3ccccc3C(F)(F)F)c2C)C([2H])([2H])C([2H])([2H])C([2H])([2H])C1([2H])[2H] (single isomer, unassigned; (-)) = 8.55

Quick note, pIC50 for Cc1c(N2CC=CCO2)nc2ccc(Br)cc2c1C(=O)NCC(CCC(=O)O)c1ccccc1Cl (racemic) landed at 7.18

Documented pIC50 of CCC1CCCN(c2nc3ccc(Br)cc3c(C(=O)NCC(CCC(=O)O)c3ccccc3C(F)(F)F)c2C)C1 (single isomer, unassigned) [Example 195] : 7.11

Briefly, pIC50 measured for Cc1c(N2CCCOCC2)nc2ccc(Br)cc2c1C(=O)NCC(CCC(=O)O)c1ccccc1Cl (racemic) : 7.23

###

# Assayed Target: FP receptor (Homo sapiens (Human), UniProt P43088)
# Protocol Description: In vitro test of inhibition of human FP receptor activity (PGF2α-induced calcium flux in FP-expressing CHEM1 cells)
# Details: PGF2α 2 nM, some mean values of multiple determinations
pIC50: −log10 of the molar value.
// label = Y if pIC50 is not less than 8, otherwise N

Solved cases below.
Cc1c(N2CCCC(F)C2)nc2ccc(Br)cc2c1C(=O)NCC(CCC(=O)O)c1c(Cl)ccc(Cl)c1Cl (single isomer, unassigned) [Example 223] = N
CCC1CCCN(c2nc3ccc(Br)cc3c(C(=O)NCC(CCC(=O)O)c3ccccc3C(F)(F)F)c2C)C1 (single isomer, unassigned; (+)) [Example 196] = Y
Cc1c(N2CCCC(F)(F)C2)nc2ccc(Br)cc2c1C(=O)NCC(CCC(=O)O)c1cc(F)ccc1F (single isomer, unassigned; (+)) [Example 263] = N
Cc1c(N2CCCC(F)C2)nc2ccc(Br)cc2c1C(=O)NCC(CCC(=O)O)c1ccccc1C(F)(F)F (single isomer, unassigned; (+)) [Example 189] = N
Cc1c(N2CCCC(C(F)(F)F)C2)nc2ccc(Br)cc2c1C(=O)NCC(CCC(=O)O)c1ccccc1Cl (stereo not drawn) [Example 53] = Y

Lookup: Dear colleague, could you confirm whether Cc1c(N2CC3CCCCC3C2)nc2ccc(Br)cc2c1C(=O)NCC(CCC(=O)O)c1ccccc1Cl (racemic) [Example 86] has pIC50 at or above 8?
Found: N

Lookup: I'd appreciate it if you could say whether Cc1c(N2CCCC(C)C2)nc2ccc(Br)cc2c1C(=O)NCC(CCC(=O)O)c1ccccc1OC(F)(F)F (stereo not drawn) [Example 140] has pIC50 at least equal to 8.
Found: Y

Lookup: Entry CCC1CCCN(c2nc3ccc(Br)cc3c(C(=O)NCC(CCC(=O)O)c3c(F)ccc(F)c3Cl)c2C)C1 (stereo not drawn) [Example 158] : is its pIC50 no less than 8?
Found: Y

Lookup: Answer whether pIC50 of COc1ccccc1C(CCC(=O)O)CNC(=O)c1c(C)c(N2CCCC2)nc2ccc(Br)cc12 (single isomer, unassigned; (+)) [Example 237] is greater than or equal to 8.
Found: Y

Lookup: Answer whether pIC50 of Cc1c(N2CCCC2)nc2ccc(Br)cc2c1C(=O)NCC(CCC(=O)O)c1ccccc1C(F)(F)F (single isomer, unassigned; (+)) [Example 115] is greater than or equal to 8.
Found: N

Lookup: Has CCC1CCCN(c2nc3ccc(Br)cc3c(C(=O)NCC(CCC(=O)O)c3ccccc3Cl)c2C)C1 (single isomer, unassigned; (+)) [Example 58] a recorded pIC50 greater than or equal to 8?
Found: Y

###

# Assayed Target: FP receptor (Homo sapiens (Human), UniProt P43088)
# Protocol Description: In vitro test of inhibition of human FP receptor activity (PGF2α-induced calcium flux in FP-expressing CHEM1 cells)
# Details: PGF2α 2 nM, some mean values of multiple determinations
Overview of reported IC50 across a group of molecules:
Numeric only. Scale: nM

Some solved cases for reference:
Cc1c(N2CCCC2)nc2ccc(Br)cc2c1C(=O)NCC(CCC(=O)O)c1c(Cl)ccc(Cl)c1Cl (racemic) [Example 174] = 11
Cc1c(N2CCCCCC2)nc2ccc(Br)cc2c1C(=O)NCC(CCC(=O)O)c1ccccc1OC(F)(F)F (single isomer, unassigned; (+)) [Example 137] = 3.8
Cc1c(N2CCCC(F)C2)nc2ccc(Br)cc2c1C(=O)NCC(CCC(=O)O)c1ccccc1C(F)(F)F (single isomer, unassigned) [Example 191] = 4.1
Cc1c(N2CCCC(F)(F)C2)nc2ccc(Br)cc2c1C(=O)NCC(CCC(=O)O)c1c(Cl)cccc1Cl (single isomer, unassigned; (-)) [Example 265] = 13
Cc1c(N2CCS(=O)(=O)CC2)nc2ccc(Br)cc2c1C(=O)NCC(CCC(=O)O)c1ccccc1Cl (racemic) [Example 87] = 550
Cc1c(N2CCCC(C)C2)nc2ccc(Br)cc2c1C(=O)NCC(CCC(=O)O)c1ccccc1C(F)(F)F (centres unmarked) [Example 125] = 5.2

So, Cc1c(N2CCCC(C)C2)nc2ccc(Br)cc2c1C(=O)NCC(CCC(=O)O)c1ccccc1C(F)(F)F (single isomer, unassigned; (-)) [Example 199] ? Its IC50 was 1.6

###

# Assayed Target: FP receptor (Homo sapiens (Human), UniProt P43088)
# Protocol Description: In vitro test of inhibition of human FP receptor activity (PGF2α-induced calcium flux in FP-expressing CHEM1 cells)
# Assay type: cell-based
# Details: PGF2α 2 nM, some mean values of multiple determinations
Binarize IC50 at 7 nM; below is 1.0, at or above is 0.0.

# example entries with known answers
Cc1c(N2CCCCC2)nc2ccc(Br)cc2c1C(=O)NCC(CCC(=O)O)c1c(F)cccc1C(F)(F)F (single isomer, unassigned; (+)) [Example 162] = 0.0
Cc1c(N2CCCC(F)C2)nc2ccc(Br)cc2c1C(=O)NCC(CCC(=O)O)c1ccccc1C(F)(F)F (single isomer, unassigned) [Example 192] = 1.0
Cc1c(NC2CCCC2)nc2ccc(Br)cc2c1C(=O)NCC(CCC(=O)O)c1ccccc1Cl (racemic) [Example 103] = 0.0

Lookup: Given the entry Cc1c(N2CCC[C@H]2C)nc2ccc(Br)cc2c1C(=O)NCC(CCC(=O)O)c1ccccc1Cl (single isomer, unassigned; (+)) [Example 83] , would its reported IC50 be below 7 nM?
Found: 1.0

Lookup: Is IC50 of Cc1c(N2CC[C@@H](F)C2)nc2ccc(Br)cc2c1C(=O)NCC(CCC(=O)O)c1ccccc1Cl (single isomer, unassigned; (+)) [Example 67] strictly below 7 nM?
Found: 1.0

###

Recorded pIC50 by entry
# Assayed Target: FP receptor (Homo sapiens (Human), UniProt P43088)
# Protocol Description: In vitro test of inhibition of human FP receptor activity (PGF2α-induced calcium flux in FP-expressing CHEM1 cells)
# Details: PGF2α 2 nM, some mean values of multiple determinations
Remember the convention: pIC50 equals -log10 of concentration in molar.

Cc1c(N2CCCCC2)nc2ccc(Br)cc2c1C(=O)NCC(CCC(=O)O)c1cccc(F)c1Cl (single isomer, unassigned; (+)) [Example 143] = 8.03
Cc1ccccc1C(CCC(=O)O)CNC(=O)c1c(C)c(N2CCCC(F)(F)C2)nc2ccc(Br)cc12 (racemic) [Example 229] = 7.89
Cc1c(N2CCCC(F)C2)nc2ccc(Br)cc2c1C(=O)NCC(CCC(=O)O)c1ccccc1OC(F)(F)F (stereo not drawn) [Example 138] = 8.52
Cc1c(N2CC=CCC2)nc2ccc(Br)cc2c1C(=O)NCC(CCC(=O)O)c1cc(F)ccc1Cl (racemic) [Example 10] = 7.44
Cc1c(N2CC=CCC2)nc2ccc(Br)cc2c1C(=O)NCC(CCC(=O)O)c1ccccc1Cl (single isomer, unassigned) [Example 31] = 7.54

// next item, pIC50 requested
Summary for this molecule, Cc1c(N2CCCC2)nc2ccc(Br)cc2c1C(=O)NCC(CCC(=O)O)c1c(F)ccc(F)c1Cl (single isomer, unassigned; (+)) [Example 215] : pIC50 is 8.41

###

# Assayed Target: FP receptor (Homo sapiens (Human), UniProt P43088)
# Protocol Description: In vitro test of inhibition of human FP receptor activity (PGF2α-induced calcium flux in FP-expressing CHEM1 cells)
# Details: PGF2α 2 nM, some mean values of multiple determinations
// reported pIC50 for each item listed
To interpret pIC50, take it as minus log10 of a concentration measured in moles per litre.

Cc1c(N2CCC(C)C2)nc2ccc(Br)cc2c1C(=O)NCC(CCC(=O)O)c1ccccc1Cl (stereo not shown) = 7.66
Cc1c(N2CCCC(F)C2)nc2ccc(Br)cc2c1C(=O)NCC(CCC(=O)O)c1cc(F)ccc1F (stereo not shown) = 7.52
Cc1c(N2CCCC(N)C2)nc2ccc(Br)cc2c1C(=O)NCC(CCC(=O)O)c1ccccc1Cl (stereo not shown) = 6.48
Cc1c(N2CCCC(F)C2)nc2ccc(Br)cc2c1C(=O)NCC(CCC(=O)O)c1ccccc1Cl (single isomer, unassigned; (+)) [Example 187] = 7.62
Cc1c(N2CCCC(F)C2)nc2ccc(Br)cc2c1C(=O)NCC(CCC(=O)O)c1c(Cl)ccc(Cl)c1Cl (stereo not shown) [Example 180] = 7.85
Cc1c(N2CCCC(F)C2)nc2ccc(Br)cc2c1C(=O)NCC(CCC(=O)O)c1ccccc1C(F)(F)F (single isomer, unassigned; (+)) [Example 190] = 7.96

// next entry
// Cc1c(N2CCCC(CO)C2)nc2ccc(Br)cc2c1C(=O)NCC(CCC(=O)O)c1cc(F)ccc1Cl (stereo not shown) : pIC50 value = 6.64
